Origin of measurements: paper PMC11191600

Assay: Plasma protein binding, equilibrium dialysis, rat plasma
Format: in vitro ADME
Decision: fu,plasma rat (fraction unbound) compared against 0.2; not below it gives 1.0, below it gives 0.0.

| record_smiles | group |
| --- | --- |
| Cc1ccccc1C(=O)N1CC2(CCN(Cc3c[nH]c4cc(F)ccc34)CC2)C1 | 1.0 |
| Cc1ccc(C(=O)N2CC3(CCN(Cc4ccc(F)c(F)c4)CC3)C2)cc1C | 0.0 |
| Cc1ccc(C(=O)N2CC3(CCN(Cc4c[nH]c5cc(F)ccc45)CC3)C2)cc1 | 0.0 |
| O=C(c1ccc2c(c1)OCO2)N1CC2(CCN(Cc3c[nH]c4cc(F)ccc34)CC2)C1 | 1.0 |
| Cc1cccc(C(=O)N2CC3(CCN(Cc4c[nH]c5cc(F)ccc45)CC3)C2)c1 | 0.0 |

====

Experiment: Kinetic solubility (shake flask, McIlvaine buffer)
Format: physicochemical
Settings: McIlvaine buffer, pH 2.2, aqueous buffer, kinetic from dmso stock

| record_smiles | measure_unit | solubility at 18 h |
| --- | --- | --- |
| Cc1ccc(C(=O)N2CC3(CCN(Cc4cn(C)c5ccccc45)CC3)C2)cc1C | µM | 88.3 |

====

Experiment: Kinetic solubility (shake flask, McIlvaine buffer)
Type: physicochemical
Settings: kinetic; McIlvaine buffer pH 2.2; 100 µM; 18 hours room temperature
Decision: Solubility pH = 2.2 compared against 90 µM; not below it gives T, below it gives F.

| molecule | group |
| --- | --- |
| Cc1ccc(C(=O)N2CC3(CCN(Cc4ccc(Cl)c(Cl)c4)CC3)C2)cc1C [Compound 9] | F |
| Cc1ccccc1C(=O)N1CC2(CCN(Cc3c[nH]c4cc(F)ccc34)CC2)C1 [Compound 33] | T |
| O=C(c1ccc2c(c1)OCO2)N1CC2(CCN(Cc3c[nH]c4cc(F)ccc34)CC2)C1 [Compound 20] | F |
| Cc1ccc(C(=O)N2CC3(CCN(Cc4ccc(F)c(F)c4)CC3)C2)cc1C [Compound 4] | T |
| Cc1ccc(C(=O)N2CC3(CCN(Cc4c[nH]c5cc(F)ccc45)CC3)C2)cc1C [Compound 5] | F |

====

Assay: Microsomal stability, human hepatic microsomes
Format: in vitro ADME
Details: predicted hepatic clearance

| molecule | CLH human (hepatic clearance) / mL/min/kg |
| --- | --- |
| Cc1cccc(C(=O)N2CC3(CCN(Cc4c[nH]c5cc(F)ccc45)CC3)C2)c1 [Compound 32] | 14.7 |
| O=C(c1ccc2c(c1)OCO2)N1CC2(CCN(Cc3c[nH]c4cc(F)ccc34)CC2)C1 [Compound 20] | 13.7 |
| Cc1ccccc1C(=O)N1CC2(CCN(Cc3c[nH]c4cc(F)ccc34)CC2)C1 [Compound 33] | 16.0 |
| Cc1ccc(C(=O)N2CC3(CCN(Cc4c[nH]c5cc(F)ccc45)CC3)C2)cc1 [Compound 29] | 17.3 |
| Cc1ccc(C(=O)N2CC3(CCN(Cc4ccc(F)c(F)c4)CC3)C2)cc1C [Compound 4] | 16.9 |

====

Target: human dopamine D3 receptor (Homo sapiens)
Sequence (P35462 whole entry): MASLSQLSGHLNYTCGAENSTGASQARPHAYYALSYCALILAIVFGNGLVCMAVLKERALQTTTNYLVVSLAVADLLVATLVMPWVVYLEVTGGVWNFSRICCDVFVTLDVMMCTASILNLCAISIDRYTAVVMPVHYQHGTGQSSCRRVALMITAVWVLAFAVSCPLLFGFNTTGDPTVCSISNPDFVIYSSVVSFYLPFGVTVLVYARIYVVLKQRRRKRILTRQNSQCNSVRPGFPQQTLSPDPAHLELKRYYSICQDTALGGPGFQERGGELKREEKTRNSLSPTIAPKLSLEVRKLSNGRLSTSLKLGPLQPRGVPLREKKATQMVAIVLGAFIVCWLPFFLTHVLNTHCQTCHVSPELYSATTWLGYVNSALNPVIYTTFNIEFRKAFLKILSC
Test: Human dopamine D3 receptor radioligand binding assay (Eurofins)
Details: 10 μM; [3H]Spiperone binding; Eurofins Discovery

| record_smiles | % Inhibition at 10 μM D3 [%] |
| --- | --- |
| Cc1ccccc1C(=O)N1CC2(CCN(Cc3c[nH]c4cc(F)ccc34)CC2)C1 | 11 |
| Cc1ccc(C(=O)N2CC3(CCN(Cc4n[nH]c5cc(F)ccc45)CC3)C2)cc1C | 25 |
| Cc1ccc(S(=O)(=O)N2CC3(CCN(Cc4c[nH]c5cc(F)ccc45)CC3)C2)cc1 | 49 |
| Cc1cccc(C(=O)N2CC3(CCN(Cc4c[nH]c5cc(F)ccc45)CC3)C2)c1 | 12 |
| O=C(c1ccc(Cl)cc1Cl)N1CC2(CCN(Cc3c[nH]c4cc(F)ccc34)CC2)C1 | 30 |
| O=C(c1ccc2c(c1)OCO2)N1CC2(CCN(Cc3c[nH]c4cc(F)ccc34)CC2)C1 | 14 |
| Cc1ccc(C(=O)N2CC3(CCN(Cc4ccc(F)c(F)c4)CC3)C2)cc1C | 9 |
| Cc1ccc(C(=O)N2CC3(CCN(Cc4c[nH]c5cc(F)ccc45)CC3)C2)cc1 | 13 |
| Cc1ccc(C(=O)N2CC3(CCN(Cc4c[nH]c5cc(F)ccc45)CC3)C2)cc1C | 27 |
| Cc1ccc(C(=O)N2CC3(CCN(Cc4ccc(Cl)c(Cl)c4)CC3)C2)cc1C | 62 |
